Can you tell me pIC50 for the items I'm about to list?
Molecular target: HER2 S310F (Homo sapiens, UniProt P04626, S310F)
Construct: expressed in transfected cells; host or cells: BaF3 (murine pro-B)
Sequence (P04626 23-1255 S310F): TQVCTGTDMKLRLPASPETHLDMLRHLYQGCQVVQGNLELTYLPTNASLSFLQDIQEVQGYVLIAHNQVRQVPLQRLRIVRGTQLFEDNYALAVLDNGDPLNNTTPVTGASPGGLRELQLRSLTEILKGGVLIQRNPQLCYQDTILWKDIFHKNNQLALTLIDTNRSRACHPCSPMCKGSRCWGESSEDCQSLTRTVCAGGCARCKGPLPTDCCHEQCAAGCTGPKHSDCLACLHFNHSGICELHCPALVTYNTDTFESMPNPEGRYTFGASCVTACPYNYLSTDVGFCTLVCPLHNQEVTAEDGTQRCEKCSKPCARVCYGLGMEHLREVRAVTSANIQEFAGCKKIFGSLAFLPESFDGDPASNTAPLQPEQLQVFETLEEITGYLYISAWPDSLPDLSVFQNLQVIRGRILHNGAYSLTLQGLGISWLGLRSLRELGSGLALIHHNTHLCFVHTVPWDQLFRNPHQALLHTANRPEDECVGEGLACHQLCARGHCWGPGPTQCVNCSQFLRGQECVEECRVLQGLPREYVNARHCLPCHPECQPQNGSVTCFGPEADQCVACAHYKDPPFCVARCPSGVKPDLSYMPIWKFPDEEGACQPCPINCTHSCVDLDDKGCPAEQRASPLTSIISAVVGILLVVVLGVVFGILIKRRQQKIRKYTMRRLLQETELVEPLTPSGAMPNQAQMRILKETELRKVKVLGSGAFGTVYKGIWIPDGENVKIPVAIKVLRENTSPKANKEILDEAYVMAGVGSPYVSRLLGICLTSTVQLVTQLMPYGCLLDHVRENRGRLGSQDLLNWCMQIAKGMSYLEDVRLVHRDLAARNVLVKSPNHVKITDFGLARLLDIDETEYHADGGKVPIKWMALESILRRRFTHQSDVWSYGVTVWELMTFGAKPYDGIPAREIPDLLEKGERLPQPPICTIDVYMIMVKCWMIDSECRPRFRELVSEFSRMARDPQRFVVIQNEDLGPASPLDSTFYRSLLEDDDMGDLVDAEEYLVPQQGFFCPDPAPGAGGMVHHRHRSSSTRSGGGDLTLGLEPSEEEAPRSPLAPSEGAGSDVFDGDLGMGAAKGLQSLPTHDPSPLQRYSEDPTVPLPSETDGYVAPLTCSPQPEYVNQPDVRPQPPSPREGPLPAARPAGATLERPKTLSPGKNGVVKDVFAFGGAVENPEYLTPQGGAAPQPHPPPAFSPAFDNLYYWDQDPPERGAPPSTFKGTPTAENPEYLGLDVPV
Assay: Activity for inhibiting HER2 (Table B), HER2 S310F
Type: cell-based
Conditions: read-out: HER2 S310F, potency code (IC50)
pIC50: −log10 of the molar value.

> print(dat)
                                   compound                           subject.of.test  readout.kind  recorded.measurement
1  C=CC(=O)Nc1cc2c(Nc3ccc(OCc4ccccn4)c(Cl)c3)ncnc2cc1OC1CCN(C)CC1  HER2 S310F (Homo sapiens, UniProt P04626, S310F)         pIC50          7.30 to 7.52

Batch lookup, pIC50 per entry.
1. C=CC(=O)Nc1cc2c(Nc3ccc(OCc4ccccn4)cc3)ncnc2cc1OCCN1CC2CN(C)CC2C1 (stereo not shown)
2. C=CC(=O)Nc1cc2c(Nc3ccc(OCc4cccc(OC(F)(F)F)n4)c(Cl)c3)ncnc2cc1OCCN1CCOCC1

6.70 to 7.00
6.52 to 6.70
